Every entry's value here was drawn from ChEMBL document CHEMBL4834405.

- target or test system: Peptidyl-prolyl cis-trans isomerase FKBP5 (Homo sapiens, UniProt Q13451)
- Sequence (Q13451 whole entry): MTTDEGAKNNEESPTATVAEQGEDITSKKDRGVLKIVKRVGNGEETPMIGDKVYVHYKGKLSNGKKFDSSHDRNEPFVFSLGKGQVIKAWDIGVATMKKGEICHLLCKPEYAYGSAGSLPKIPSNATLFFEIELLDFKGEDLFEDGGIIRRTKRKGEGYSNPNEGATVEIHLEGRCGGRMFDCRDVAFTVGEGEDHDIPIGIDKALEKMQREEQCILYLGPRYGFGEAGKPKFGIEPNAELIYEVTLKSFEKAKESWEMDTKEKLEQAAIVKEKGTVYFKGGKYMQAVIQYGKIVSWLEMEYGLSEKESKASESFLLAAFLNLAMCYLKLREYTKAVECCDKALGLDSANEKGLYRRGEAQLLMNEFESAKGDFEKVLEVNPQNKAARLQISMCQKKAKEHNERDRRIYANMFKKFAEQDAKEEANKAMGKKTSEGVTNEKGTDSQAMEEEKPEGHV
- measurement notes: Displacement of fluorescent tracer 5-(3-(4-((1S,5S,6S)-10-(3,5-dichlorophenylsulfonyl)-2-oxo-3-(pyridin-3-ylmethyl)-3,10-diazabicyclo[4.3.1]decan-5-yl)-1H-1,2,3-triazol-1-yl)propylcarbamoyl)-2-(6-(dimethylamino)-3-(dimethyliminio)-3H-xanthen-9-yl)benzoate from recombinant full length C-terminal FLAG-tagged FKBP51 (unknown origin) expressed in Escherichia coli BL21 (DE3) cells incubated for 30 mins by fluorescence polarisation competition binding assay
measured endpoint: Kd (nM)

Consider the following illustrative entries.
compound=COc1ccc(CC[C@H]2OC(=O)[C@@H]3CCCCN3C(=O)[C@@H](C3CCCCC3)c3cc(OC)c(c(OC)c3)OCCCOC/C=C/COc3cccc2c3)cc1OC measured_endpoint=Kd numeric_result=84
compound=COc1ccc(CC[C@H]2OC(=O)[C@@H]3CCCCN3C(=O)[C@@H](C3CCCCC3)c3cc(OC)c(OC)c(c3)OCCCCCOc3cccc2c3)cc1OC measured_endpoint=Kd numeric_result=46
compound=COc1ccc(CC[C@H]2OC(=O)[C@@H]3CCCCN3C(=O)[C@@H](C3CCCCC3)c3cc(OC)c(OC)c(c3)OCCOCCCCOc3cccc2c3)cc1OC measured_endpoint=Kd numeric_result=61
compound=COc1ccc(CC[C@H]2OC(=O)[C@@H]3CCCCN3C(=O)[C@@H](C3CCCCC3)c3cc(OC)c(OC)c(c3)OC/C=C/COc3cccc2c3)cc1OC measured_endpoint=Kd numeric_result=108
compound=COc1ccc(CC[C@H]2OC(=O)[C@@H]3CCCCN3C(=O)[C@@H](C3CCCCC3)c3cc(OC)c(OC)c(c3)OCCCOCCCCOc3cccc2c3)cc1OC measured_endpoint=Kd numeric_result=103

(1) COc1ccc(CC[C@H]2OC(=O)[C@@H]3CCCCN3C(=O)[C@@H](C3CCCCC3)c3cc(OC)c(c(OC)c3)OCC/C=C\COc3cccc2c3)cc1OC
(2) COc1ccc(CC[C@H]2OC(=O)[C@@H]3CCCCN3C(=O)[C@@H](C3CCCCC3)c3cc(OC)c(OC)c(c3)OCCOCC(=O)CCOc3cccc2c3)cc1OC
Ask: Kindly identify the item with the lower Kd figure among these two: 1 and 2 Return value: the label identifying the chosen record.
Reply: 2
